- Target Under Test: Cy3-CRX HD;NRL DBD (;, UniProt O43186;P54845 31-107;128-237, |)
- Sequence (O43186 31-107, chain 1 of 2): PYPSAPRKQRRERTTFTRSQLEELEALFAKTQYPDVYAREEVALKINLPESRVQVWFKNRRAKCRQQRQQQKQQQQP
- Sequence (P54845 128-237, chain 2 of 2): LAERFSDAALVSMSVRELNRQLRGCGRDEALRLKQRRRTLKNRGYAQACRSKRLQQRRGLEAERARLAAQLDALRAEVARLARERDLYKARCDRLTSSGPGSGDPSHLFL
- Assay Overview: smTIRFM
pKd: −log10 of the molar value.

Binder: NRE-Ret4 38-mer biotinylated (dsDNA) DNA 1: CCAGATGCTGATTCAGCCAGGAGCTTAGGAGGGGGAGG DNA 2: CCTCCCCCTCCTAAGCTCCTGGCTGAATCAGCATCTGG
pKd: 7.55
